Kindly state pEC50 for each of the entries shown.
# testedOn: human CaSR (Homo sapiens, UniProt P41180)
# Construct: a human CaSR open reading frame (ORF) was contained in the pcDNA3.1/Zeo(+) vector
# Sequence (P41180 20-1078): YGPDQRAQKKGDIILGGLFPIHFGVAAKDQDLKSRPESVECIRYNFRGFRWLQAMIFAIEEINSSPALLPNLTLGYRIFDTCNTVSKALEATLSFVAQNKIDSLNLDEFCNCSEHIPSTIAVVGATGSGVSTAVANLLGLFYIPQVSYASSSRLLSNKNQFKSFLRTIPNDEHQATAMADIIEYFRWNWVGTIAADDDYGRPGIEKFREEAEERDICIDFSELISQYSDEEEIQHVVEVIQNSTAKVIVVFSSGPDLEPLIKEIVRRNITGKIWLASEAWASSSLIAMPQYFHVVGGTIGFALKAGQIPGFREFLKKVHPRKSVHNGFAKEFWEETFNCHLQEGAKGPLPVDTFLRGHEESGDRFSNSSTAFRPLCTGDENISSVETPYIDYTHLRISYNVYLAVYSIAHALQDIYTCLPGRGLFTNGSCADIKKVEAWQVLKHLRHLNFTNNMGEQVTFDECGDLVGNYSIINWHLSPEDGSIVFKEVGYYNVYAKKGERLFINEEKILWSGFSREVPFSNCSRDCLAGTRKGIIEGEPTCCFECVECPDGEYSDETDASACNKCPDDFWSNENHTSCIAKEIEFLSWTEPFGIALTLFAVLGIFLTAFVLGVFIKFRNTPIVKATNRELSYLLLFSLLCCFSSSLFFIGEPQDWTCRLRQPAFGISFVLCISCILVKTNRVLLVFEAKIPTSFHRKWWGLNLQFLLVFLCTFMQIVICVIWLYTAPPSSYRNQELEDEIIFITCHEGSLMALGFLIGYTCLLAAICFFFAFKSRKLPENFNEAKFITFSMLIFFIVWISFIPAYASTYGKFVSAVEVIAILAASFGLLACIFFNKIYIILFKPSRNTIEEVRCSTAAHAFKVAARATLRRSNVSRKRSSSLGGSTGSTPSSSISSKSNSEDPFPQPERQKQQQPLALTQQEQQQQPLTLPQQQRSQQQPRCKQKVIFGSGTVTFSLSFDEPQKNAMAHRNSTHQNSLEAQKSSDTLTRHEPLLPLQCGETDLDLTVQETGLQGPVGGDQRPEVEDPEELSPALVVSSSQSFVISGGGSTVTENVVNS
# assayProtocol: Human calcium sensing receptor (CaSR) agonism test (Fluo-3 / FLIPR)
# measurementContext: HEK 293 cell stably expressing human CaSR; 0.5 mM Ca2+; 2 mM Ca2+ group = 100%; read-out: EC50 (compound concentration showing 50% human CaSR agonistic activity)
Where a name gives a salt, the structure may show the parent alone.
Give bare numbers, as −log10 of the molar value.

C[C@@H](NCC1CCN(c2c(F)cc(C(=O)O)cc2F)CC1c1ccccc1)c1cccc2ccccc12 (stereo partly shown) [Example 52, hydrochloride]	7.89
C[C@@H](NCC1CCN(c2cc(C(F)(F)F)c(C(=O)O)cn2)CC1c1cccc(F)c1)c1cccc2ccccc12 (stereo partly shown)	7.77
C[C@@H](NCC1CCN(c2ncc(C(=O)O)cc2Cl)CC1c1ccccc1)c1cccc2ccccc12 (stereo partly shown) [Example 31, hydrochloride]	8.30

Alright, here's another compound for you.
Form field pEC50, entry COc1cccc([C@@H](C)NCC2CCN(c3ncc(C(=O)O)cc3Cl)CC2c2ccccc2)c1 (stereo partly shown) [Example 33, hydrochloride] : 7.70

====

# testedOn: human CaSR (Homo sapiens, UniProt P41180)
# Construct: a human CaSR open reading frame (ORF) was contained in the pcDNA3.1/Zeo(+) vector
# assayProtocol: Human calcium sensing receptor (CaSR) agonism test (Fluo-3 / FLIPR)
# measurementContext: HEK 293 cell stably expressing human CaSR; 0.5 mM Ca2+; 2 mM Ca2+ group = 100%; read-out: EC50 (compound concentration showing 50% human CaSR agonistic activity)
Structures can show the parent of a compound that is named as a salt.
Would you kindly list EC50 for each of these compounds?
One number for each entry, in nM.

C[C@@H](NCC1CCN(c2c(F)cc(C(=O)O)cc2F)CC1c1ccccc1)c1csc2ccccc12 (stereo partly shown) [Example 87]	11
C[C@@H](NCC1CCN(c2c(F)cc(-c3nnn[nH]3)cc2F)CC1c1ccccc1)c1cccc2ccccc12 (stereo partly shown) [Example 53, hydrochloride]	3.8
C[C@@H](NCC1CCN(c2ncc(C(=O)O)cc2Cl)CC1c1ccccc1F)c1cccc2ccccc12 (stereo partly shown) [Example 32, hydrochloride]	7.5
C[C@@H](NCC1CCN(c2cccc(C(=O)O)c2)CC1c1ccccc1)c1cccc2ccccc12 (stereo partly shown) [Example 34, hydrochloride]	8.1
C[C@@H](NCC1CCN(C(=O)Oc2ccc(C(=O)O)cc2)CC1c1ccccc1)c1cccc2ccccc12 (stereo partly shown) [Example 25, hydrochloride]	13
C[C@@H](NCC1CCN(c2nc(C(=O)O)cs2)CC1c1ccccc1)c1cccc2ccccc12 (stereo partly shown) [Example 39, hydrochloride]	2.6

So, C[C@@H](NCC1CCN(c2ccc(C(=O)O)cn2)CC1c1ccccc1F)c1cccc2ccccc12 (stereo partly shown) [Example 104] ? Its EC50 was 14

====

# testedOn: human CaSR (Homo sapiens, UniProt P41180)
# Construct: a human CaSR open reading frame (ORF) was contained in the pcDNA3.1/Zeo(+) vector
# assayProtocol: Human calcium sensing receptor (CaSR) agonism test (Fluo-3 / FLIPR)
# measurementContext: HEK 293 cell stably expressing human CaSR; 0.5 mM Ca2+; 2 mM Ca2+ group = 100%; read-out: EC50 (compound concentration showing 50% human CaSR agonistic activity)
Structures can show the parent of a compound that is named as a salt.
What pEC50 was measured for each of the following?
One number for each entry, as −log10 of the molar value.

C[C@@H](NCC1CCN(c2cccc(C(=O)O)c2)CC1c1ccccc1F)c1cccc2ccccc12 (stereo partly shown) [Example 35, hydrochloride]	8.12
C[C@@H](NCC1CN(C(=O)Nc2ccc(C(=O)O)cc2)CCC1c1cccc(F)c1)c1cccc2ccccc12 (stereo partly shown) [Example 13, hydrochloride]	8.54
C[C@@H](NCC1CCN(c2cccc(C(=O)O)n2)CC1c1ccccc1)c1cccc2ccccc12 (stereo partly shown) [Example 30, hydrochloride]	8.26

Next item in the queue.
Memo: COc1cc(C(=O)O)ccc1NC(=O)N1CCC(c2ccccc2)C(CN[C@H](C)c2cccc3ccccc23)C1 (stereo partly shown) [Example 3] , reported pEC50: 8.74
